The origin of these recorded values is patent US8383817B2.

Catalogue of compounds with associated pKi
- assay system: DAT (Rattus norvegicus)
- Construct: their brains removed to an ice-cooled dish for dissection of the caudate putamen; from tissue; host or cells: rat caudate putamen homogenate
- Sequence (P23977 whole entry): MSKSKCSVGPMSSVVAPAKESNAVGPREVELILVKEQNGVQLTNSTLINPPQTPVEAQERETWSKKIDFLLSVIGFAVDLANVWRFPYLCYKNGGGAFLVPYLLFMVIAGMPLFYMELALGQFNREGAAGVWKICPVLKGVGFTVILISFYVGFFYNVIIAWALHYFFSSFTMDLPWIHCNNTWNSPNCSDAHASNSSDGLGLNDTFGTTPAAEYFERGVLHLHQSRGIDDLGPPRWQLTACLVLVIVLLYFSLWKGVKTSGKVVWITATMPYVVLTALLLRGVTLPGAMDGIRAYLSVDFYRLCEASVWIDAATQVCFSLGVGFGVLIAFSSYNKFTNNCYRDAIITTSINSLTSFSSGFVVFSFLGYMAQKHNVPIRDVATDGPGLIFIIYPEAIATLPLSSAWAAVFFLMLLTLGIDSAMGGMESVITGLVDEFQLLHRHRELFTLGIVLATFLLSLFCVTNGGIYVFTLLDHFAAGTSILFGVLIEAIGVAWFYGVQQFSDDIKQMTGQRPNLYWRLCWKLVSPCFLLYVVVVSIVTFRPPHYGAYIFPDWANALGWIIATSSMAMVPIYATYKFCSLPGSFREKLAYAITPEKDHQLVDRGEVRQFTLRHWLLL
- test name: biochemical
- Assay type: binding
- setup conditions: read-out: DAT binding Ki
pKi: −log10 of the molar value.
value kind: pKi

[
  {
    "compound": "COC(=O)C1C(OC(c2ccc(Cl)cc2)c2ccc(Cl)cc2)CC2CCC1N2C (racemic) [(±)-14]",
    "quantitative result": 7.63
  },
  {
    "compound": "CCOC(=O)C1C(OC(c2ccc(Cl)cc2)c2ccc(Cl)cc2)CC2CCC1N2C (racemic) [(±)-15]",
    "quantitative result": 7.66
  }
]
